- Tested on: MDA-MB-435
Possible outcomes: class 1 = active, class 0 = inactive

# COMPOUND, TARGET ENTITY, ASSIGNED CLASS
measured = [
    ("COc1cc(-c2cn(-c3ccc(Cl)c(Cl)c3)c(=O)n2C(C)=O)cc(OC)c1OC", "MDA-MB-435", "class 0"),
    ("COc1ccccc1/C=C/C(=O)c1ccccc1", "MDA-MB-435", "class 0"),
    ("C/C=C1\\NC(=O)[C@H]2CSSCCC=C[C@H](CC(=O)N[C@H](C(C)C)C(=O)N2)OC(=O)[C@H](C(C)C)NC1=O", "MDA-MB-435", "class 1"),
    ("O=C1c2cc(Cl)ccc2-c2c1c1ccc([N+](=O)[O-])cc1c(=O)n2CCCBr", "MDA-MB-435", "class 0"),
    ("Cc1ccc(-c2csc(NC(=O)CN3CCN(c4cc5c(cc4F)c(=O)c(C(=O)O)cn5C4CC4)CC3)n2)cc1", "MDA-MB-435", "class 0"),
    ("O=C(O)c1ccc2c(c1)CCCC(c1ccc(Cl)cc1Cl)=C2c1ccc(O[C@H]2CCN(CCCF)C2)cc1", "MDA-MB-435", "class 0"),
    ("Cc1cc2c(cc1C)N(C(=O)CCl)CCN2C(=O)CCl", "MDA-MB-435", "class 0"),
    ("CCn1c(-c2nonc2N)nc2c(C#CC(C)(C)O)nc(OCCNC)cc21", "MDA-MB-435", "class 0"),
    ("COc1ccc2cc(-c3c(-c4ccncc4)nc(-c4ccc(S(C)(=O)=O)cc4C)n3C)ccc2c1", "MDA-MB-435", "class 0"),
    ("CN1C(=O)N(C)C2C1NN=c1s/c(=C\\c3ccc(F)cc3)c(=O)n12 (stereo unspecified)", "MDA-MB-435", "class 1"),
    ("CC[C@H](Nc1nc(C)nc(N)c1C#N)c1nc2cccc(NCc3ccc(C(=O)NO)cc3)c2c(=O)n1-c1ccccc1", "MDA-MB-435", "class 0"),
]

---

- System: SK-OV-3 ovarian
- TEST NAME: NCI tumour cell line growth inhibition, 48 h; in the data active = GI50 below about 0.43 µM; inactive = the rest
Possible outcomes: T = active, F = inactive

# COMPOUND, ASSIGNED CLASS
data = [
    ("COc1cc2cc(C(=O)N3C[C@H](CCl)c4c3cc(N)c3ccccc43)[nH]c2c(OC)c1OC", "T"),
    ("C=C1C(=O)O[C@H]2[C@H]1CC/C(COC(=O)c1cc3cc(Cl)ccc3[nH]1)=C\\CC[C@@]1(C)O[C@@H]21", "F"),
    ("CN(C)CCCNC(=O)c1ccc2c(c1)oc1cc3ccccc3c(=O)n12", "F"),
    ("Cc1cc(S(=O)(=O)NC#N)c(S/C(=N\\Nc2ccc([N+](=O)[O-])cc2)c2ccc(Cl)cc2)cc1Cl", "F"),
    ("N#CCCN(CCC#N)c1ccc(C(Sc2ccccc2)C(NC(=O)c2cc([N+](=O)[O-])ccc2Cl)C(=O)Sc2ccccc2)cc1 (stereo not drawn)", "F"),
    ("COc1ccc2cc(-c3c(-c4ccncc4)nc(-c4ccc(S(C)(=O)=O)cc4C)n3C)ccc2c1", "F"),
    ("COc1cc(/C=C2\\C(=O)Nc3ccc(N(C)C)cc32)cc(OC)c1OC", "F"),
    ("CNCCn1c(=O)c2cc(OC)c(OC)cc2c2ccc3cc4c(cc3c21)OCO4", "T"),
    ("Nc1ccccc1C#C/C=C\\C#Cc1ccccc1", "F"),
    ("Cc1cc(Cl)ccc1Nc1nc(C(F)(F)F)ccc1C(=O)N/N=C/c1ccc([N+](=O)[O-])cc1", "F"),
    ("Cc1ccc2nc(-c3ccc(N(C)C)c(Br)c3)cn2c1", "F"),
    ("Fc1cc2[nH]ncc2c2c3c(c(-c4cn[nH]c4C(F)(F)F)nc12)C1CCC3C1 (stereo not drawn)", "F"),
    ("NC(=O)c1cc2c3ccccc3ccn2c1-c1ccccc1", "T"),
    ("CCOc1cccc(/C=N/NC(=O)C(=O)Nc2cccc(C(F)(F)F)c2)c1O", "F"),
    ("CC[O-].CC[O-].O=S(=O)([O-])c1ccc([O-])c2ncccc12.O=S(=O)([O-])c1ccc([O-])c2ncccc12.[Ti+4]", "F"),
    ("O=C(O)C1CCCCC1C(=O)O.[NH-]C1CCC1.[NH2-].[Pt+2] (stereo not drawn)", "F"),
    ("CCC[n+]1cc2cc(OC)c(OC)cc2c2c1-c1cc3c(cc1C2)OCO3", "F"),
    ("O=C1c2cc(Cl)ccc2-c2c1c1ccc([N+](=O)[O-])cc1c(=O)n2CCCBr", "F"),
]

---

- System: COLO 205 colon
- TEST NAME: NCI tumour cell line growth inhibition, 48 h
Reported TGI values are given for each entry in this list.

# MOLECULE, TGI
records = [
    ("Cc1cc(C)nc(NS(=O)(=O)c2ccc(Nc3c4ccccc4nc4c(C(=O)N5CCN(CCOS(C)(=O)=O)CC5)cccc34)cc2)n1", "> 100 µM"),
    ("O=S(=O)(O)c1ccc(N=Nc2ccc(N=Nc3ccc(/C=C/c4ccc(N=[N+]([O-])c5ccc(/C=C/c6ccc(N=Nc7ccc(N=Nc8ccc(S(=O)(=O)O)cc8)cc7)cc6S(=O)(=O)O)c(S(=O)(=O)O)c5)cc4S(=O)(=O)O)c(S(=O)(=O)O)c3)cc2)cc1", "> 100 µM"),
    ("O=C(O)c1ccc2c(c1)CCCC(c1ccc(Cl)cc1Cl)=C2c1ccc(O[C@H]2CCN(CCCF)C2)cc1", "33.7 µM"),
    ("COc1ccc(/C=c2\\s/c(=C3/SC(=S)N(c4ccccc4)C3=O)n(-c3ccccc3)c2=O)cc1", "> 100 µM"),
    ("NC(=S)NNc1c([N+](=O)[O-])cnn(-c2ccccc2)c1=O", "26.7 µM"),
    ("N.N.N.N.O=C([O-])C(Cl)Cl.O=C([O-])C(Cl)Cl.[Co+3].[O-][Cl+3]([O-])([O-])[O-]", "> 100 µM"),
    ("CC[C@H](Nc1nc(C)nc(N)c1C#N)c1nc2cccc(NCc3ccc(C(=O)NO)cc3)c2c(=O)n1-c1ccccc1", "3.8 µM"),
    ("CCP(=O)(OC)C1=CCN(C(=O)OCC[Si](C)(C)C)CC1 (stereo not drawn)", "> 100 µM"),
    ("CCOC(=O)c1s/c(=N\\Nc2nc3ccccc3cc2C2OCCO2)n(Cc2ccccc2)c1C", "> 100 µM"),
    ("Cc1ccccc1C1=C(C(=O)Nc2ccc(Cl)c(Cl)c2)NC(=S)NC1N (stereo not drawn)", "> 100 µM"),
    ("OCCOCn1nncc1Cn1ncc2c(SCc3ccccc3)ncnc21", "> 100 µM"),
    ("CCOc1cc(/C=N\\Nc2nnc(C)n2N)c(C)cc1N(CCCl)CCCl", "1.89 µM"),
    ("CC1C(=O)OCC2=CCN3CCC(OC(=O)C(C)C1(C)O)C23 (stereo not drawn)", "> 100 µM"),
    ("CCCCN(CCCC)c1c([N+](=O)[O-])c(=O)nc2ccccn12", "> 100 µM"),
    ("COc1ccc2nc(/C(N)=C\\C#N)ccc2c1", "> 100 µM"),
    ("CCCCSc1nsc(N(C(=O)c2ccccc2)C(=O)c2ccccc2)n1", "41.5 µM"),
    ("COc1cccc2c1C(=O)c1c(O)c3c(c(O)c1C2=O)C[C@H](O)C[C@@H]3OC1CC(N)C(O)C(C)O1 (stereo partly drawn)", "10.3 µM"),
    ("CCC[n+]1cc2cc(OC)c(OC)cc2c2c1-c1cc3c(cc1C2)OCO3", "8.52 µM"),
]

---

Reported GI50 values are given for each entry in this list.
- Tested on: KM12 colon
- TEST NAME: NCI tumour cell line growth inhibition, 48 h

# COMPOUND, GI50
measured = [
    ("COc1cc(-c2cn(-c3ccc(Cl)c(Cl)c3)c(=O)n2C(C)=O)cc(OC)c1OC", "12.3 µM"),
    ("COc1cc2cc(C(=O)N3C[C@H](CCl)c4c3cc(N)c3ccccc43)[nH]c2c(OC)c1OC", "0.0115 µM"),
    ("COc1ccc(Cn2c3c(cc(OS(=O)(=O)C(F)(F)F)c2=O)Cc2ccccc2-3)cc1", "41.1 µM"),
    ("Cc1nc2sccn2c1-c1csc(Nc2cccc(Cl)c2C)n1", "3.79 µM"),
    ("COc1ccccc1/C=C/C(=O)c1ccccc1", "4.04 µM"),
    ("Nc1ccccc1C#C/C=C\\C#Cc1ccccc1", "4.51 µM"),
    ("O=C(O)C1CCCCC1C(=O)O.[NH-]C1CCC1.[NH2-].[Pt+2] (centres undefined)", "> 100 µM"),
    ("NC(N)=NCCC1OC(=O)C2=C1c1c(O)ccc3nccc(c13)O2 (centres undefined)", "> 100 µM"),
    ("O=C1c2cc(Cl)ccc2-c2c1c1ccc([N+](=O)[O-])cc1c(=O)n2CCCBr", "20.8 µM"),
]

Entry source: PubChem BioAssay (NCI)
